Measured Target: wild-type EGFR (Homo sapiens)
Sequence (P00533 25-1210): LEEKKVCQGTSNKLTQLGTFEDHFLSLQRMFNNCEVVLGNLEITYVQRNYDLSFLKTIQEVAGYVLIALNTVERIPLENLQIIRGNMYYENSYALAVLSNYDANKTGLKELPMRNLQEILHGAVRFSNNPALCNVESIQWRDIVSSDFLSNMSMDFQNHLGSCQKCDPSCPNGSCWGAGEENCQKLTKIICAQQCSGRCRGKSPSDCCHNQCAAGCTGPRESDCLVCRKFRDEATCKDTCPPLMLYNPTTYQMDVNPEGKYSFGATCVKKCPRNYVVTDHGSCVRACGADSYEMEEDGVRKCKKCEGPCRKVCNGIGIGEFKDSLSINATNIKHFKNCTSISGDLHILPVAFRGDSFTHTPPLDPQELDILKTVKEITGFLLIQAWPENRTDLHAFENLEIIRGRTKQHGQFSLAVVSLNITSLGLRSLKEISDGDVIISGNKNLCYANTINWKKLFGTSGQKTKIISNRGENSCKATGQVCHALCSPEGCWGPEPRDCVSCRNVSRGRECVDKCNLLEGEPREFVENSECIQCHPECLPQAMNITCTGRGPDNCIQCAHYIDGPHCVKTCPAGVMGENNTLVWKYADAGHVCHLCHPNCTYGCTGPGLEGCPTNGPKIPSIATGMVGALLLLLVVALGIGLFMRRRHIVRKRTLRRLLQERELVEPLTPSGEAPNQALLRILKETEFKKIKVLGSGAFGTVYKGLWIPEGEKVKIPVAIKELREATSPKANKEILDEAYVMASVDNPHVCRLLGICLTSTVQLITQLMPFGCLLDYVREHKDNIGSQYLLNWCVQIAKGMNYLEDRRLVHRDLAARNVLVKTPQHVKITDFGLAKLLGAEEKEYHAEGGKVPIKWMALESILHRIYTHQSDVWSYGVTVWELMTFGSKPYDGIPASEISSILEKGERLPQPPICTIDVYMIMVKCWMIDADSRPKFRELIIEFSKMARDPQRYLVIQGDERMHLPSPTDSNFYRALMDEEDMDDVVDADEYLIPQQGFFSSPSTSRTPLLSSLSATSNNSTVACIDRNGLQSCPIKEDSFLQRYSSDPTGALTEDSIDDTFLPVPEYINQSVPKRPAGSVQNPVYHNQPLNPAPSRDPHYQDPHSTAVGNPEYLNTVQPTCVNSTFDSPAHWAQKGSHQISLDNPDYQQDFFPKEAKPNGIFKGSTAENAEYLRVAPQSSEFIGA
Procedure Text: EGFR kinase assay (ELISA)
Test Conditions: concentration 0.3 nM; one value per replicate column; 0.0003 µM
Measured Parameter: Inhibition

Solved cases (8 shown):
>  <Molecule>
CCOc1cccc(-n2cc(-c3cccc(Nc4ncnc5cc(OCCOC)c(OCCOC)cc45)c3)nn2)c1 [e14]

>  <Measured Parameter>
Inhibition

>  <Obs Value>
5.242

$$$$
>  <Molecule>
COCCOc1cc2ncnc(Nc3cccc(-c4cn(-c5ccc(OC)c(OC)c5)nn4)c3)c2cc1OCCOC [e19]

>  <Measured Parameter>
Inhibition

>  <Obs Value>
0.9259

$$$$
>  <Molecule>
COCCOc1cc2ncnc(Nc3cccc(-c4cn(Cc5cc(Br)cc(Br)c5)nn4)c3)c2cc1OCCOC [e4]

>  <Measured Parameter>
Inhibition

>  <Obs Value>
6.25

$$$$
>  <Molecule>
COCCOc1cc2ncnc(Nc3cccc(-c4cn(-c5ccccc5C(F)(F)F)nn4)c3)c2cc1OCCOC [e16]

>  <Measured Parameter>
Inhibition

>  <Obs Value>
9.134

$$$$
>  <Molecule>
COCCOc1cc2ncnc(Nc3cccc(-c4cn(-c5ccc(C)cc5)nn4)c3)c2cc1OCCOC [e12]

>  <Measured Parameter>
Inhibition

>  <Obs Value>
14.0873

$$$$
>  <Molecule>
COCCOc1cc2ncnc(Nc3cccc(-c4cn(Cc5ccccc5)nn4)c3)c2cc1OCCOC [e1]

>  <Measured Parameter>
Inhibition

>  <Obs Value>
12.7273

$$$$
>  <Molecule>
COCCOc1cc2ncnc(Nc3cccc(-c4cn(-c5ccc(Br)cc5)nn4)c3)c2cc1OCCOC [e10]

>  <Measured Parameter>
Inhibition

>  <Obs Value>
10.9489

$$$$
>  <Molecule>
COCCOc1cc2ncnc(Nc3cccc(-c4cn(CCc5ccccc5)nn4)c3)c2cc1OCCOC [e20]

>  <Measured Parameter>
Inhibition

>  <Obs Value>
27.0358

$$$$

a. COCCOc1cc2ncnc(Nc3cccc(-c4cn(-c5ccccc5OC)nn4)c3)c2cc1OCCOC [e11]
b. COCCOc1cc2ncnc(Nc3cccc(-c4cn(Cc5ccccc5Br)nn4)c3)c2cc1OCCOC [e3]
Exercise: // returns a or b , whichever has the lower Inhibition Reply with the label of the item you choose.
Key: a
(a: 3.734, b: 17.0507)

Where do these numbers come from? They come from paper PMC8776995.
